Test: MTT cytotoxicity assay
Type: cell-based
Settings: human, HepG2 cells, MTT, 0.0025 mM - 1mM concentration range, read-out: Cytotoxicity CC50 HepG2
Overview of reported CC50 at 24 h across a group of molecules:
Record the value in mM, omitting the unit from your answer.

The examples below pair each entry with its known result.
# molecule, property_name, unit_label, result_number
measured = [
    ("O=C(NC(c1ccccc1O)P(=O)(O)O)c1cc2ccccc2s1 (stereo not drawn) [5c]", "CC50 at 24 h", "mM", 2.93),
    ("O=C(NC(c1ccccc1O)P(=O)(O)O)c1csc2ccccc12 (stereo not drawn) [5d]", "CC50 at 24 h", "mM", 4.44),
    ("O=C(Cc1cccs1)NC(c1ccccc1O)P(=O)(O)O (stereo not drawn) [5i]", "CC50 at 24 h", "mM", 1.49),
    ("O=C(Cc1ccsc1)NC(c1ccccc1O)P(=O)(O)O (stereo not drawn) [5j]", "CC50 at 24 h", "mM", 3.97),
]

Quick note, CC50 at 24 h for O=C(NC(c1ccccc1O)P(=O)(O)O)c1cccs1 (stereo not drawn) [5a] landed at 4.55

====

Reported Ki values for the following compounds.
Target: NDM-1 (Klebsiella pneumoniae)
Sequence (C7C422 29-270, looked up, species assumed): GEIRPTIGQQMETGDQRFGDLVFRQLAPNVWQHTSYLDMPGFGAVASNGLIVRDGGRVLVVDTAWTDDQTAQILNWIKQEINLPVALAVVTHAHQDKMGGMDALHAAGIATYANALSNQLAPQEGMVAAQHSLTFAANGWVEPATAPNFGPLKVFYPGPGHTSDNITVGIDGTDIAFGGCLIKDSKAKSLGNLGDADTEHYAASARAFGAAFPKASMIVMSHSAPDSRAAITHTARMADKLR
Experiment: Enzymatic metallo-β-lactamase assay on purified NDM-1
Format: biochemical
Conditions: approximated from Dixon plots (1/v vs [I]) at one constant substrate concentration; ± SE; read-out: Estimated inhibition constant Ki NDM-1
Reply with just the number (in µM).

# compound, property_name, result_number
data = [
    ("O=C(Cc1cccs1)NC(c1ccccc1O)P(=O)(O)O (centres unmarked)", "Ki", 1070),
    ("O=C(NC(c1ccccc1O)P(=O)(O)O)c1ccsc1 (centres unmarked)", "Ki", 451),
    ("O=C(Cc1csc2ccccc12)NC(c1ccccc1O)P(=O)(O)O (centres unmarked)", "Ki", 411),
    ("O=C(NC(c1ccccc1O)P(=O)(O)O)c1ccccc1 (centres unmarked)", "Ki", 363),
    ("O=C(Cc1ccsc1)NC(c1ccccc1O)P(=O)(O)O (centres unmarked)", "Ki", 196),
]

Kindly note the recorded Ki for O=C(NC(c1ccccc1O)P(=O)(O)O)c1csc2c1CCCC2 (centres unmarked) , which is 128

Record summary for O=C(NC(c1ccccc1O)P(=O)(O)O)c1cccs1 (centres unmarked) : reported Ki = 617

Looking up O=C(Cc1cc2ccccc2s1)NC(c1ccccc1O)P(=O)(O)O (centres unmarked) , I found its Ki recorded as 262

====

Assay: Long term stability in buffer with 2.5% DMSO (LC-MS)
Format: physicochemical
Conditions: 20 mM KPO4, 0.1 mM ZnCl2, pH 7.0 + 2.5% DMSO; LC-MS 254 nm
property_name: main peak Area% right after dissolving in buffer (%)
Note: unit % is implicit; provide only the numeric part.

// worked examples, main peak Area% right after dissolving in buffer included
# compound, result_number
measured = [
    ("O=C(Cc1cccs1)NC(c1ccccc1O)P(=O)(O)O (stereo not shown) [5i]", 96.45),
    ("O=C(Cc1csc2ccccc12)NC(c1ccccc1O)P(=O)(O)O (stereo not shown) [5l]", 98.54),
    ("O=C(NC(c1ccccc1O)P(=O)(O)O)c1cc2ccccc2s1 (stereo not shown) [5c]", 97.20),
    ("O=C(NC(c1ccccc1O)P(=O)(O)O)c1cccs1 (stereo not shown) [5a]", 95.87),
    ("O=C(Cc1cc2ccccc2s1)NC(c1ccccc1O)P(=O)(O)O (stereo not shown) [5k]", 98.10),
    ("O=C(NC(c1ccccc1O)P(=O)(O)O)c1ccccc1 (stereo not shown) [5h]", 95.97),
]

// main peak Area% right after dissolving in buffer value for O=C(NC(c1ccccc1O)P(=O)(O)O)c1scc2c1CCCC2 (stereo not shown) [5g] : 98.21

====

Molecular target: 15N-labelled VIM-2 (Escherichia coli)
Construct: made in house
Test: 1H,15N-HSQC titration of VIM-2
Format: binding
Details: 10 equivalents of compound, 600 MHz, pH 7.0, 25 °C
Protocol: The ^1H, ^15N-HSQC spectra for the titration experiments were recorded on a Bruker Avance Neo 600 MHz spectrometer equipped with a 5 mm TCI cryogenic probe at 25 °C. […] Spectra were recorded using solvent suppression, 1024 points in f1, 16 transients, 512 increments in f2 and a relaxation delay of 0.2 s. […] Chemical shift perturbation values (CSP, ΔδNH) were calculated as the weighted average of […]
Mean chemical shift perturbation, VIM-2 values for the compounds below.
Give the value in ppm but do not write ppm after it.

# compound, unit_label, Mean chemical shift perturbation, VIM-2
records = [
    ("O=C(NC(c1ccccc1O)P(=O)(O)O)c1scc2c1CCCC2 (centres unmarked)", "ppm", 0.04),
]

# O=C(NC(c1ccccc1O)P(=O)(O)O)c1csc2ccccc12 (centres unmarked) with 15N-labelled VIM-2 (Escherichia coli): Mean chemical shift perturbation, VIM-2 is 0.04

The reported Mean chemical shift perturbation, VIM-2 value, 15N-labelled VIM-2 (Escherichia coli), for O=C(NC(c1ccccc1O)P(=O)(O)O)c1cc2ccccc2s1 (centres unmarked) reads 0.05

I looked up O=C(Cc1cccs1)NC(c1ccccc1O)P(=O)(O)O (centres unmarked) and its Mean chemical shift perturbation, VIM-2 for 15N-labelled VIM-2 (Escherichia coli) was 0.04

The recorded Mean chemical shift perturbation, VIM-2 with 15N-labelled VIM-2 (Escherichia coli) for O=C(Cc1ccsc1)NC(c1ccccc1O)P(=O)(O)O (centres unmarked) was 0.04

====

Molecular target: UniProt:C7C422
Experiment: Enzymatic metallo-β-lactamase assay on purified NDM-1
Assay type: biochemical
Settings: purified enzyme 5 nM, imipenem 30 μM, pH 7.2, 25 °C
API: label(entry) gives MET if the entry's IC50 is strictly smaller than 90 µM; on equality or larger values it gives NOT MET.

# compound, class_assignment
measured = [
    ("O=C(Cc1cc2ccccc2s1)NC(c1ccccc1O)P(=O)(O)O (centres unmarked)", "MET"),
    ("O=C(NC(c1ccccc1O)P(=O)(O)O)c1ccccc1 (centres unmarked)", "MET"),
    ("O=C(NC(c1ccccc1O)P(=O)(O)O)c1cccs1 (centres unmarked)", "NOT MET"),
    ("O=C(NC(c1ccccc1O)P(=O)(O)O)c1ccsc1 (centres unmarked)", "NOT MET"),
    ("O=C(Cc1ccsc1)NC(c1ccccc1O)P(=O)(O)O (centres unmarked)", "NOT MET"),
    ("O=C(Cc1cccs1)NC(c1ccccc1O)P(=O)(O)O (centres unmarked)", "MET"),
    ("O=C(Cc1csc2ccccc12)NC(c1ccccc1O)P(=O)(O)O (centres unmarked)", "MET"),
]

Let's switch to this compound now.
Input O=C(NC(c1ccccc1O)P(=O)(O)O)c1csc2c1CCCC2 (centres unmarked) ; condition: IC50 strictly below 90 µM. Does it hold?
MET

====

Molecular target: VIM-2 (Escherichia coli, UniProt Q5U7L7)
Assay: Enzymatic metallo-β-lactamase assay on purified VIM-2
Assay type: biochemical
Conditions: purified enzyme 1 nM, nitrocefin 15 μM, pH 7.2, 25 °C
We begin with a simple list: items and their reported pIC50.
Conceptually, pIC50 converts a concentration in mol/L into minus its log10.

Some solved entries appear below for comparison.
# compound, property_name, result_number
records = [
    ("O=C(NC(c1ccccc1O)P(=O)(O)O)c1cc2c(s1)CCCC2 (stereo not shown) [5e]", "pIC50", 4.10),
    ("O=C(NC(c1ccccc1O)P(=O)(O)O)c1ccsc1 (stereo not shown) [5b]", "pIC50", 3.91),
    ("O=C(Cc1csc2ccccc12)NC(c1ccccc1O)P(=O)(O)O (stereo not shown) [5l]", "pIC50", 4.59),
]

Measured pIC50, O=C(Cc1cccs1)NC(c1ccccc1O)P(=O)(O)O (stereo not shown) [5i] : 4.42

Recorded pIC50 (compound O=C(NC(c1ccccc1O)P(=O)(O)O)c1cc2ccccc2s1 (stereo not shown) [5c] ): 3.99

Reported pIC50 ( O=C(Cc1ccccc1)NC(c1ccccc1O)P(=O)(O)O (stereo not shown) [5m] ) = 4.13

The compound listed as O=C(Cc1ccsc1)NC(c1ccccc1O)P(=O)(O)O (stereo not shown) [5j] shows pIC50 equal to 4.43

====

Target: VIM-2 (Escherichia coli)
Assay: Enzyme steady state kinetic studies (inhibitor 5g and VIM-2)
Type: biochemical
Conditions: Ki, [I] 72 μM, nitrocefin
property_name: pKi
Hey, just a heads up that pKi is the negative log base 10 of the concentration in molar.

pKi reported for this compound O=C(NC(c1ccccc1O)P(=O)(O)O)c1scc2c1CCCC2 (stereo not shown) : 4.39

====

Target: GIM-1 (Pseudomonas aeruginosa, UniProt Q704V1)
Sequence (Q704V1 entry or part of it): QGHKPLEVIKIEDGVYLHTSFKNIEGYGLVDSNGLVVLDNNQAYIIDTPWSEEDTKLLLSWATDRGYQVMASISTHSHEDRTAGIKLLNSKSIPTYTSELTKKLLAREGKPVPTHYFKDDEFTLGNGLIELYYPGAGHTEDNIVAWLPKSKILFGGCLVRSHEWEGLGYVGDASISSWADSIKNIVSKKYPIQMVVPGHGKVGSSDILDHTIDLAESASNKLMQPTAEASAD
Assay: Enzymatic metallo-β-lactamase assay on purified GIM-1
Conditions: purified enzyme 1 nM, nitrocefin 2 μM, pH 7.2, 25 °C
property_name: log10 of IC50 (log10 of the value in µM)
Parameter value (number): base-10 log of IC50 in µM.

Past entries and their recorded results:
# compound, result_number
measured = [
    ("O=C(NC(c1ccccc1O)P(=O)(O)O)c1cc2c(s1)CCCC2 (stereo not shown)", 1.72),
    ("O=C(NC(c1ccccc1O)P(=O)(O)O)c1ccsc1 (stereo not shown)", 2.37),
    ("O=C(Cc1cc2ccccc2s1)NC(c1ccccc1O)P(=O)(O)O (stereo not shown)", 1.90),
    ("O=C(Cc1csc2ccccc12)NC(c1ccccc1O)P(=O)(O)O (stereo not shown)", 1.71),
]

Entry O=C(NC(c1ccccc1O)P(=O)(O)O)c1csc2ccccc12 (stereo not shown) , log10 of IC50 reported as 1.00
